Consider the following molecules and their measured GI50 readings.
system: A549; assay: NCI tumour cell line growth inhibition, 48 h
The source made the active and inactive calls. Rule as the data show it: active = GI50 up to about 1.1 µM and inactive = higher.

{"columns": ["molecule", "GI50"],
 "data": [
  ["Cc1cc([C@H](C#N)c2nc3ccccc3[nH]2)nc(Cl)n1", "33.9 µM (inactive)"],
  ["CC(O)(C#N)CC(O)(C(F)(F)Cl)C(F)(F)Cl (stereo not drawn)", "> 10 µM (inactive)"],
  ["O=C1OC(CC(=O)c2ccc(Cl)c(Cl)c2)C(Cl)=C1Cl (stereo not drawn)", "> 100 µM (inactive)"],
  ["COc1ccc(C2=CC(c3ccccc3)n3nnnc3N2)cc1 (stereo not drawn)", "> 100 µM (inactive)"],
  ["COC(=O)/C=C\\[C@H]1[C@H](C)N1S(=O)(=O)c1ccc(C)cc1 (stereo partly drawn)", "> 100 µM (inactive)"],
  ["COC(=O)C1=C(C)N(NC(=O)c2ccccc2)C2(O)CCCC(=O)C12C (stereo not drawn)", "> 100 µM (inactive)"],
  ["COc1ccccc1NC1Oc2cc3c(cc2C(c2cc(OC)c(OC)c(OC)c2)C1C)OCO3 (stereo not drawn)", "4.53 µM (inactive)"],
  ["Cc1ccc(NC(=O)C2C(=O)N(c3ccc(C)c(C)c3)C(=O)C2N=N)cc1C (stereo not drawn)", "58.9 µM (inactive)"],
  ["CCNCCC1(CC)C(=O)NC(=O)NC1=O", "> 100 µM (inactive)"],
  ["CC(=O)N1C(Nc2ccccn2)CCN1c1ccccc1 (stereo not drawn)", "> 10 µM (inactive)"],
  ["O=c1c2ccccc2sc2nc(O)nn12", "> 100 µM (inactive)"],
  ["CCN(CC)CCOC(c1ccccc1)c1ccccc1.CCOC(=O)Nc1ccc(S(=O)(=O)OC)cc1.CCOC(=O)Nc1ccc(S(=O)(=O)OC)cc1.Nc1ccc(C(=O)O)c(O)c1", "> 100 µM (inactive)"],
  ["O=C1C(c2c(O)[nH]c3ccccc23)=Nc2ccc(Br)cc21", "27.2 µM (inactive)"]
]}
